# Tested on: BDF1 mice, B16 melanoma ip, median survival T/C
# TEST PROTOCOL: NCI In Vivo Anticancer Drug Screen. Data for tumor model B16 Melanoma (intraperitoneal) in B6D2F1 (BDF1) mice
# COND: endpoint: median survival time; dose: 6.25 mg/kg/injection; schedule: Q01DX009 (ip); vehicle: saline with Tween-80; higher = longer survival
Toxic doses and inconclusive results are not listed.
ENDPOINT LABEL: T/C

These recorded examples may help you get a feel for the data.
Find the recorded T/C belonging to `CCCCOc1ccc(NC(N)=Nc2ccc(Cl)cc2)cc1` and report it.
88 % of control

Name the reported T/C value associated with the compound O=C1CC(C(=O)N2Cc3cc4ccccc4nc3C2)CO1 (stereo not drawn)
111 % of control

Continuing:
// returns reported T/C for input CCCCC#CCOCC(O)CCl (stereo not drawn)
114 % of control

Sample `O=C(CCl)Nc1cc(C(F)(F)F)ccc1Cl` — what was its T/C?
103 % of control

# input compound: `CCCC1CC[N-]CC1.CCCC1CC[N-]CC1.CCCC1CC[N-]CC1.CCCC1CC[N-]CC1.[Cl][Rh][Cl]` ; wanted: its T/C
98 % of control

Recorded T/C of CC/C(C)=C1\OC(=O)C(C)C(O)C(Cc2cccnc2)NC(=O)C(NC(=O)c2ncccc2O)C(C)OC1=O (stereo not drawn) , please.
87 % of control

// returns reported T/C for input `CC(C)Cc1ccc(OC(=O)Nc2ccc(Cl)cc2)cc1`
97 % of control

Query (compound): `Clc1ccc2nc(CBr)cnc2c1` ; field requested: T/C
87 % of control

Given the entry Nc1ccn(C2OC(COC(=O)C34CC5CC(CC(C5)C3)C4)C(O)C2O)c(=O)n1 (stereo not drawn) , report its measured T/C.
115 % of control

For the compound [Cl][Hg][CH]1CCC2OC1CC[CH]2[Hg][Cl] (stereo not drawn) , what T/C is on record?
104 % of control

Could you tell me which T/C is on file for O=C1C2(Cl)C3(Cl)C4(Cl)C(Cl)(Cl)C5(Cl)[C@]3(Cl)C1(Cl)[C@]5(Cl)C24Cl (stereo partly drawn) ?
102 % of control

Consider the compound `Cl/C=C(\Cl)CCl` and give its measured T/C.
108 % of control

* * *

# Test system: BDF1 mice, B16 melanoma ip, median survival T/C
# TEST PROTOCOL: NCI In Vivo Anticancer Drug Screen. Data for tumor model B16 Melanoma (intraperitoneal) in B6D2F1 (BDF1) mice
# COND: endpoint: median survival time; dose: 400.0 mg/kg/injection; schedule: Q01DX009 (ip); vehicle: saline with Tween-80; higher = longer survival
Toxic doses and inconclusive results are not listed.
Quick reference: T/C of the listed items.

Examples with answers:
Look up T/C for this molecule: `Nc1ccc(S(=O)(=O)c2ccc(NCNc3ccc(S(=O)(=O)c4ccc(N)cc4)cc3)cc2)cc1`
90 % of control

Query: T/C; subject: `O=C(Nc1cccc(Cl)c1)Nc1cc(Cl)ccc1Cl`
86 % of control

Fill in: T/C of `Cc1ccc(S(=O)(=O)N(C)C)cc1N` is ___
102 % of control

Find the recorded T/C belonging to `O=C(c1ccncc1)c1c(Cc2ccccc2)ccc2ccccc12` and report it.
95 % of control

If you can, please state the reported T/C value of `Cc1ccccc1C(=O)NCC(=O)O` .
95 % of control

Next:
Reported T/C for `NC(=O)NC1CCCCCC1` : what is it?
95 % of control

Recorded T/C for Clc1ccc2c(c1)C([P+](c1ccccc1)(c1ccccc1)c1ccccc1)c1cc(Cl)cc(Cl)c1-2 (stereo not drawn) , please?
89 % of control

Endpoint output: T/C of `CCc1cc(C)cc(OC(=O)Nc2cccc(Cl)c2)c1` . Value?
86 % of control

Param item = `CC1=C(c2cc3ccccc3c3ccccc23)CCCC1` ; retrieve measured T/C.
91 % of control

Give its T/C value. Item: `Cc1cc2nc(-c3ccccc3)c(-c3ccccc3)nc2cc1C`
91 % of control

Report T/C for `O=[N+]([O-])c1cccc(S(=O)(=O)Nc2ccccc2Cl)c1` please.
95 % of control

Consider the molecule shown here: `CCOC(=O)CCCc1c[nH]c2ccccc12` What is its recorded T/C?
107 % of control

Suppose we examine the molecule `CN(C(=O)c1cccnc1)c1ccccc1` ; what T/C value has been reported?
111 % of control
